B1: TPR 5TU (parent)
chain: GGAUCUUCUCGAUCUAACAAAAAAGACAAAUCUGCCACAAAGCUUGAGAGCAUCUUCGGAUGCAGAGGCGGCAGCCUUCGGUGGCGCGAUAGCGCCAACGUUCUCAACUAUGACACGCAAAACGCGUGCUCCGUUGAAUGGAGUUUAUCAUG

- Variants of: B1
- assay text: polymerase ribozyme fitness, log enrichment relative to wild type (log ratio); higher = more active; in vitro selection for triplet polymerase activity
Fewer inactive variants are shown than the library holds.

variant descriptor	modifier sign	polymerase ribozyme fitness (log ratio)
A40G A41G G67C A120C	≤	-4.2
A41C C95U	=	-2.15
G74C A150C	≤	-4.2
G48C G50U G59U U82A G92C	=	-3.41
A12G G88A U109C A142C	=	-4.12
A21C A24U A40G U144A	=	-3.76
U15G A110G	=	-3.59
A30U C43G A47G U53G C72A G140A	≤	-4.2
G46C A49U C72U C116U	≤	-4.2
A47C G126A	=	0.0505
C8A C85U	=	-2.6
A24G A26U U56A C87G C123A C132G G133U	≤	-4.2
U56A A66C C72U G92A C93U C95A C116A	≤	-4.2
G59A G86U	=	-1.84
U55G G143A	=	-0.655
G86C U101G	=	-2.8
U7G U45A C57U C76A G83A G84A	≤	-4.2
A3C U4G A21C C38G A41C G68A G81A C85U C95U C116G	≤	-4.2
U15G A60G C87G C103G A147C	≤	-4.2
U82C G94C C108A A110G A113G G140U	≤	-4.2
G46C A49C U56A C57U G62A C63A C69U G86C C99U G141C U145G C149U A150U	≤	-4.2
A21G G94A	=	-1.01
U7A C8G A89C C95G	≤	-4.2
U56A C85G C93G A107U U111G	≤	-4.2
C72U A91U G92A U127G	≤	-4.2
G81C C85U	=	0.0549
G84U U102C C149G	≤	-4.2
A21U G25A A89C	=	-3.68
C57U C75G	=	-3.63
A16U A20C A91U G141U	≤	-4.2
A47G C93G U144A	=	-2.58
U4A C5G C69U C79U C85U G94C G117A G128U	≤	-4.2
U7C U56A A91U A106U C132U	=	-3.92
A37U C75A C85U G112C G124C C132G A142G U145A	≤	-4.2
G50A G59U G71U A73C C95A C108G	≤	-4.2
A91G G92U	=	-2.31
C5U A28U C51G A52C G67A G94C	≤	-4.2
G59C G126U	=	0.134
U61A A64G G140C U144C	≤	-4.2
U61G C95U A97G C105A A106U	≤	-4.2
A60G G70C U77A U135G	≤	-4.2
C38A C54U A73U	=	-2.15
C85A G94A G128C	=	-3.21
C38U C57A G143C	=	-2.41
U4A C8U A24C C96U	≤	-4.2
C27A A28U A39C C54G C96A	≤	-4.2
G50U C87U A89G	=	-3.95
U61C A98U C103G A115G C131U	≤	-4.2
A41U G124U	=	-0.896
U82G G86U	=	-1.46
C54A C79A G100A	≤	-4.2
G25U C69G G83U C95U	=	-3
A19C C43U U61G A64C U77G C85U A110U C116G	≤	-4.2
U6C A47C C85A	=	-3.96
C51U G59A C85G A137U	≤	-4.2
A97U G140U	=	-3.87
A64C G65A A107G G112U G124A G141U U148G	≤	-4.2
U6A C27A C85G	≤	-4.2
C85A A138G	=	-3.24
A37U C87U	=	-0.99
A60G C79G	=	-3.75
U9G A23U G58A G59U C79A G81U C85A A120C U139C	≤	-4.2
G11A A28U C32U A47U C79A	≤	-4.2
U56A G86A	=	-1.16
U9G A29U U53G U55G C93A A137C	≤	-4.2
C14A A17C A41C C96U A115U G141A	≤	-4.2
U61A C96G	=	-2.6
A26G G92U	=	-3.31
C54A U148C	=	-3.69
C8A A41C A66U C69A U77C G83C G126U U130G G141C G152C	≤	-4.2
C57U C95U	=	-1.55
C5G A12G A21C A26U C38G U77A C118U	≤	-4.2
U9G C35U A52C U61A C87A U101C C125A	≤	-4.2
A41G C54G G84A U148C	=	-3.53
A17U G84A C123G	=	-0.525
C8G G48C G80U G84U C125U G141U	≤	-4.2
C51A U127G	=	-4.1
A41U C57U G80A	=	-1.12
A142G U146C	=	-3.25
G94C C116U	=	-0.0318
G83A C85U	=	-1.94
C76G G84U U145C	≤	-4.2
A47G U102C A142C C149U	≤	-4.2
A40C C69G G80A	=	-0.716
U6C G11C A16C G58C A142C	=	-3.7
A28U A39G A66G C76A G81C	≤	-4.2
U6G C75G U90A G92U	≤	-4.2
A49U A89U C132U	=	-2.65
U4G A23G C32U G62C G94C G126A G143U	=	-4.05
A41U C85G	=	-2.37
C14A A23G A26U C43U C54U C57A C96G G143A	≤	-4.2
